Reference source: patent US20150141381A1

Record form. Attribute: MIC. Fill in for each entry.
# System: S. aureus RN450
# Assay Explanation: In Vitro Anti-Bacterial Activity Assay (MIC), gram positive
# Format: cell-based
# Assay Setup: Staphylococcus aureus, RN450, 18 h, gram positive bacteria; read-out: Antibiotic Activity Gram + (MIC)

Use the examples below as a reference point.
• CC(=O)O[C@H]1[C@H]2C(=C(O)[C@]3(O)C(=O)C(C(N)=O)=C(O)[C@@H](N(C)C)[C@H]13)C(=O)c1c(ccc(CN3CCC(C(F)(F)F)CC3)c1O)[C@@H]2C = < 4 mg/L
• CN(C)[C@@H]1C(O)=C(C(N)=O)C(=O)[C@@]2(O)C(O)=C3C(=O)c4c(O)ccc(CN5CCCC5)c4C[C@H]3C[C@@H]12 = < 4 mg/L

// each listed compound needs a value for MIC
1. CN(Cc1cc(N(C)C)c2c(c1O)C(=O)C1=C(O)[C@]3(O)C(=O)C(C(N)=O)=C(O)[C@@H](N(C)C)[C@@H]3C[C@@H]1C2)CC(C)(C)C
2. CN(C)[C@@H]1C(O)=C(C(N)=O)C(=O)[C@@]2(O)C(O)=C3C(=O)c4c(O)ccc(-c5cncc(CO)c5)c4C[C@H]3C[C@@H]12
3. CN(C)c1cc(CN2CCC3CCCCC3C2)c(O)c2c1C[C@H]1C[C@H]3[C@H](N(C)C)C(O)=C(C(N)=O)C(=O)[C@@]3(O)C(O)=C1C2=O (some centres unmarked)
4. CN(C)c1cc(NCc2ccc(OC(F)(F)F)cc2)c(O)c2c1C[C@H]1C[C@H]3[C@H](N(C)C)C(O)=C(C(N)=O)C(=O)[C@@]3(O)C(O)=C1C2=O
5. C[C@H]1c2ccc(NC3CC(C)(C)NC(C)(C)C3)c(O)c2C(=O)C2=C(O)[C@]3(O)C(=O)C(C(N)=O)=C(O)[C@@H](N(C)C)[C@@H]3[C@@H](O)[C@@H]21
6. CCCOc1cccc2c1C(=O)C1=C(O)[C@]3(O)C(=O)C(C(N)=O)=C(O)[C@@H](N(C)C)[C@@H]3C[C@@H]1C2 [drawing 3578]

["< 4 mg/L", "< 4 mg/L", "< 4 mg/L", "< 4 mg/L", "< 4 mg/L", "> 4 mg/L"]

// each listed compound needs a value for MIC
1. CN(C)CC(=O)NCc1cc(N(C)C)c2c(c1O)C(=O)C1=C(O)[C@]3(O)C(=O)C(C(N)=O)=C(O)[C@@H](N(C)C)[C@@H]3C[C@@H]1C2
2. C[C@H]1c2ccc(CN3CCCCC3)c(O)c2C(=O)C2=C(O)[C@]3(O)C(=O)C(C(N)=O)=C(O)[C@@H](N(C)C)[C@@H]3[C@@H](O)[C@@H]21
3. CN(C)C(=O)CNc1cc(N(C)C)c2c(c1O)C(=O)C1=C(O)[C@]3(O)C(=O)C(C(N)=O)=C(O)[C@@H](N(C)C)[C@@H]3C[C@@H]1C2
4. CN(C)c1cc(CN2CCCC2C(F)(F)F)c(O)c2c1C[C@H]1C[C@H]3[C@H](N(C)C)C(O)=C(C(N)=O)C(=O)[C@@]3(O)C(O)=C1C2=O (some centres unmarked)
5. CC(C)CN(Cc1ccc(O)c2c1C[C@H]1C[C@H]3[C@H](N(C)C)C(O)=C(C(N)=O)C(=O)[C@@]3(O)C(O)=C1C2=O)CC(C)C
6. C[C@H]1c2ccc(CN3CCC4(CC3)OCCO4)c(O)c2C(=O)C2=C(O)[C@]3(O)C(=O)C(C(N)=O)=C(O)[C@@H](N(C)C)[C@@H]3[C@@H](O)[C@@H]21

1. < 4 mg/L
2. < 4 mg/L
3. > 4 mg/L
4. < 4 mg/L
5. < 4 mg/L
6. < 4 mg/L

// each listed compound needs a value for MIC
1. CN(C)[C@@H]1C(O)=C(C(N)=O)C(=O)[C@@]2(O)C(O)=C3C(=O)c4c(O)ccc(-c5ccc(NC(=O)NCCCCl)cc5)c4C[C@H]3C[C@@H]12
2. CN(C)c1cc(CCC2(O)CCCC2)c(O)c2c1C[C@H]1C[C@H]3[C@H](N(C)C)C(O)=C(C(N)=O)C(=O)[C@@]3(O)C(O)=C1C2=O
3. CCc1cc(CNCCC(F)(F)F)c(O)c2c1C[C@H]1C[C@H]3[C@H](N(C)C)C(O)=C(C(N)=O)C(=O)[C@@]3(O)C(O)=C1C2=O
4. CN(C)c1cc(CNC(=O)C2CCCN2)c(O)c2c1C[C@H]1C[C@H]3[C@H](N(C)C)C(O)=C(C(N)=O)C(=O)[C@@]3(O)C(O)=C1C2=O (some centres unmarked)
5. CN(C)c1cc(CN2CCC(C(F)F)CC2)c(O)c2c1C[C@H]1C[C@H]3[C@H](N(C)C)C(O)=C(C(N)=O)C(=O)[C@@]3(O)C(O)=C1C2=O
6. CN(C)[C@@H]1C(O)=C(C(N)=O)C(=O)[C@@]2(O)C(O)=C3C(=O)c4c(O)ccc(-c5ccc(F)c(F)c5)c4C[C@H]3C[C@@H]12

1: < 4 mg/L; 2: > 4 mg/L; 3: < 4 mg/L; 4: > 4 mg/L; 5: < 4 mg/L; 6: < 4 mg/L
